The measurements presented in this section are drawn from PubChem BioAssay (NCI).

Test system: HCC-2998 colon
test.method.notes: NCI tumour cell line growth inhibition, 48 h
measured.endpoint: TGI (µM)
One number for each entry, in µM.

molecule_smiles=COc1cc2c(OC)c3cc(C)oc(=O)c3c(O)c2c(O)c1-c1c(OC)cc2c(OC)c3cc(C)oc(=O)c3c(O)c2c1O measured_endpoint=TGI unit_abbrev=µM experimental_value=33.5

Now turn to the next compound.
Supply reported TGI belonging to this compound: O=C(c1ccccc1)c1ccc(N2C(=O)/C(=C/c3cccc([N+](=O)[O-])c3)N=C2c2ccccc2)c(N2C(=O)/C(=C/c3cccc([N+](=O)[O-])c3)N=C2c2ccccc2)c1
60.1
